System: 521955-158-R2-J5-PDC complex spheroid viability
experiment-description: Anticancer human tumor 521955-158-R2-J5-PDC patient-derived pancreatic carcinoma cell line growth inhibition [GQUAD]; active means viability on the fitted dose curve at most 10% of control; inactive means the rest
experimental-conditions: second compound 3.16 µM; first compound 0.316 µM
Write down the outcome that applies. Available outcomes: true for active, false for inactive

Completed entries (count: 2):
INSERT INTO results (compound, target_or_test_system, class_name) VALUES
  ('O=C(c1cc(Cc2n[nH]c(=O)c3ccccc23)ccc1F)N1CCN(C(=O)C2CC2)CC1 + CN(C)c1ccc(Nc2c3ccc(NC(=O)CCN4CCCC4)cc3nc3cc(NC(=O)CCN4CCCC4)ccc23)cc1', '521955-158-R2-J5-PDC complex spheroid viability', 'false'),
  ('Cn1ncnc1[C@H]1c2n[nH]c(=O)c3cc(F)cc(c23)N[C@@H]1c1ccc(F)cc1 + CN(C)c1ccc(Nc2c3ccc(NC(=O)CCN4CCCC4)cc3nc3cc(NC(=O)CCN4CCCC4)ccc23)cc1', '521955-158-R2-J5-PDC complex spheroid viability', 'false');

Okay, now this compound:
Ask | Query: recorded result category for O=C(NO)c1cnc(N2CCN(S(=O)(=O)c3ccc4ccccc4c3)CC2)nc1 + Cc1cnc(CNC(=O)c2c(=O)c3ccc(N4CCCN(C)CC4)nc3n3c2sc2ccccc23)cn1 in this test
Reply | true

###

System: 521955-158-R2-J5-PDC complex spheroid viability
experiment-description: Anticancer human tumor 521955-158-R2-J5-PDC cell line growth inhibition [GQUAD];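 further: spheroids exposed to agents for one week before reading; 100% = DMSO vehicle control viability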
experimental-conditions: second compound 10 µM; first compound 0.1 µM; active compounds read low
parameter: viability, T/C (%)
Hi! Could you send only the number? It should be in %, unit omitted.

Record excerpt, results attached:
INSERT INTO results (compound, value_units, observed_result) VALUES
  ('C=CC(=O)N1CCN(c2nc(=O)n(-c3c(C)ccnc3C(C)C)c3nc(-c4c(O)cccc4F)c(F)cc23)C(C)C1 (stereo not given) + Cc1cnc(CNC(=O)c2c(=O)c3ccc(N4CCCN(C)CC4)nc3n3c2sc2ccccc23)cn1', '%', 18.5),
  ('CC1COCCN1c1cc(C2(O)CC3CCC(C2)O3)c2cnn(-c3ccn[nH]3)c2n1 (stereo not given) + CN(C)c1ccc(Nc2c3ccc(NC(=O)CCN4CCCC4)cc3nc3cc(NC(=O)CCN4CCCC4)ccc23)cc1', '%', 30.1),
  ('CC(C)n1c(=O)n(C)c2cnc3cc(F)c(-c4ccc(OCCCN5CCCCC5)nc4)cc3c21 + Cc1cnc(CNC(=O)c2c(=O)c3ccc(N4CCCN(C)CC4)nc3n3c2sc2ccccc23)cn1', '%', 19.4),
  ('O=C(NO)c1cnc(N2CCN(S(=O)(=O)c3ccc4ccccc4c3)CC2)nc1 + Cc1[nH]c2ccc(F)cc2c1-c1nc2c3cccnc3c3ncccc3c2[nH]1', '%', 106),
  ('O=C(NO)c1cnc(N2CCN(S(=O)(=O)c3ccc4ccccc4c3)CC2)nc1 + CN(C)c1ccc(Nc2c3ccc(NC(=O)CCN4CCCC4)cc3nc3cc(NC(=O)CCN4CCCC4)ccc23)cc1', '%', 94.1);

Ask | Requested read-out: viability, T/C. Entry: COc1ncnc(C2CC2)c1-c1ncc2cnn(Cc3ccc(-c4nc(C(F)(F)F)cn4C(C)C)cc3)c2n1 + Cc1cnc(CNC(=O)c2c(=O)c3ccc(N4CCCN(C)CC4)nc3n3c2sc2ccccc23)cn1
Reply | 11.2

Ask | Repeat with O=C(c1cc(Cc2n[nH]c(=O)c3ccccc23)ccc1F)N1CCN(C(=O)C2CC2)CC1 + CN(C)c1ccc(Nc2c3ccc(NC(=O)CCN4CCCC4)cc3nc3cc(NC(=O)CCN4CCCC4)ccc23)cc1
Reply | 64.5
